# TEST PROTOCOL: yeast display, Sf9 membrane polyspecificity reagent, FACS + sequencing; frameworks hold sequencing errors
ASSAY READOUT: polyreactivity (PSR sort gate)

Some solved entries appear below for comparison.
BIOSEQUENCE	polyreactivity (PSR sort gate)
QVQLVESGGGLVQAGGSLRLSCAASGYTLSLNAMGWYRQAPGKEREFVARISGRGGSTYYADSVKGRFTISRDNAKNTVYLQMNSLKPEDTAVYYCAATWWPWGTDNRGMYYWGQGTQVTVSS	high polyreactivity
QVQLVESGGGLVQAGGSLRLSCAASGRIFTINAMGWYRQAPGKERELVAAISWSGVRTYYADSVKGRFTISRDNAKNTVYLQMNSLKPEDTAVYYCAKRRQYQRSYNYWGQGTQVTVSS	low polyreactivity
QVQLVESGGGLVQAGGSLRLSCAASGRTFYYNAMGWYRQAPGKERELVARITSSGGSTYYADSVKGRFTISRDNAKNTVYLQMNSLKPEDTAVYYCAAGRSRYLWFGRDFDYWGQGTQVTVSS	low polyreactivity
QVQLVESGGGLVQAGGSLRLSCAASGFTFRIYAMGWYRQAPGKERELVAAITWSGGSTSYADSVKGRFTISRDNAKNTVYLQMNSLKPEDTAVYYCAAETKYSGAYPYDYWGQGTQVTVSS	high polyreactivity
QVQLVESGGGLVQAGGSLRLSCAASGSTFRYYAMGWYRQAPGKERELVAAITKNGGSTYYADSVKGRFTISRDNAKNTVYLQMNSLKPEDTAVYYCADQYSYSGWYYVSYYYWGQGTQVTVSS	high polyreactivity

The recorded polyreactivity (PSR sort gate) for entry QVQLQESGGGLVQAGGSLRLSCAASGTITVLYKMGWFRQAPGKEREFFASINYGTSTYYADSVKGRFTVSRDSAKNTVYLQMISLKPEDTAVYYGAAAYRWQDVYRYWGQVTQVTVSS equals low polyreactivity

The recorded polyreactivity (PSR sort gate) for entry QVQLVESGGGLVQAGGSLLLSCAASGSIFRYYAMGWSRQAPGKERELVAAISSNGASTYYADSVKGRFTISRDNAKNTVYLQKNSLKPEVSGVYYCAARFRRAPGYYWGQGTQVTVSS equals high polyreactivity

The recorded polyreactivity (PSR sort gate) for entry QVQLVESGGGLVQAGGSLRLSCAASGTISAYAMGWYRQAPGKERELVAAITRTGGSTYYADSVKGRFTISRDNAKNTVYLQMNSLKPEDTAVYYCATEFRYREFYYWGQGTQVTVSS equals high polyreactivity

---

# TEST PROTOCOL: yeast display, Sf9 membrane polyspecificity reagent, FACS + sequencing; frameworks hold sequencing errors

BIOSEQUENCE	polyreactivity (PSR sort gate)
QVQLVESGGGLVQAGGSLRLSCAASGRTFPYYTMGWYRQAPGKERELVAAISSSGGSTYYADSVKGRFTISRDNAKNTVYLQMNSLKPEDTAVYYCNAGYRWTHFGSWGQGTQVTVSS	low polyreactivity
QVQLVESRGGLVQAGGSLRLSCATSGRIFAKYAMGWYRQAPGKESELVAAITTTGRTYYADSVKGRFTISRDNAKNTVYLQMNSLKPEDTAVYYCAVGYHAPKVSTSDARYDYWGQGTQVTVSS	low polyreactivity

---

# TEST PROTOCOL: yeast display, Sf9 membrane polyspecificity reagent, FACS + sequencing; frameworks hold sequencing errors
ASSAY READOUT: polyreactivity (PSR sort gate)

Some solved entries appear below for comparison.
BIOSEQUENCE	ASSAY READOUT	REPORTED MEASUREMENT
QVQLVESGGGLVQAGGSLRLSCAASGRIFKNNAMGWYRQAPGKERELVAAITWRSGRTYYADSVKGRFTISRDNAKNTVYLQMNSLKAEDTAVYYCAKQVFGYGIVNNGDYWGQGTQVTVSS	polyreactivity (PSR sort gate)	high polyreactivity
QVQLVESGGGLVQAGGSLRLSCAASGFIFYPYAMGWYRQAPGKERELVAVITSGGRTYYADSVKGRFTISRDNAKNTVYLQMNSLKPEDTAVYYCAAQYIQAWRLFDYWGQGTQVTVSS	polyreactivity (PSR sort gate)	low polyreactivity
QVQLVESGGGLVQAGGILRLSCAASGSTFGRYAIGWYRPAPGTERELVAAISRRGGSTYYADSVKWRFTISRDNAKNNVYLQMYSLKPVDTAVYYCAADDVRTSGCHFDYWGDGTQVTVSS	polyreactivity (PSR sort gate)	high polyreactivity
QVQLVESGGGLVQAGGSLRLSCAASGRIFGIYAMGWYRQAPGKERELVASITGSSGSTNYADSVKGRFTISRDNAKNTVYLQMNSLKPEDTAVYYCAADIPSYYWWRAYDYWGQGTQVTVSS	polyreactivity (PSR sort gate)	low polyreactivity
QDQLVESGGGLVQAGGSLRLSCAASGGTFGLNAMGWYRQAPGKERELVADIDGRGGCTYYADSVKGRFTISRDNAQNTVYLQMNSLKPEDTAVYYCAARAPFLSVPTELDYWGQGTQVSVSS	polyreactivity (PSR sort gate)	low polyreactivity
QVQLVDSGGGLVQAGGSLRLSCAASGYILGRYAMGWYRQAPGKERELVAAISSSGGSTYYADSVKGRFTISRDNGKNSVYLQINSLKPEDTAFYYWNVPRFYGSYNYWGQGTQVTVSS	polyreactivity (PSR sort gate)	high polyreactivity

The recorded polyreactivity (PSR sort gate) for entry QVQLVESGGGLVQAGGSLRLSCAATGYTFYIYAMGWYRQARGKERELVASITSDGRTNYADSVKGRFTISRDNAKNTVYLQMNSLKPEDTAVYYCATVGKVHDRLVAMDYWGQGTQVTGSS equals low polyreactivity

The recorded polyreactivity (PSR sort gate) for entry QVQLVESGGGLVQAGGSLRLSCAASGSTFAYYAMGWYRQAPGKERELVAGISGSGGSTYYADSVKGRFTISRDNAKNTVYLQMNSLKPEVTAVYYCAVVQRSKRTYPWYDYWGQGTQVTVSS equals low polyreactivity

---

# TEST PROTOCOL: yeast display, Sf9 membrane polyspecificity reagent, FACS + sequencing; frameworks hold sequencing errors
ASSAY READOUT: polyreactivity (PSR sort gate)

Some solved entries appear below for comparison.
BIOSEQUENCE	polyreactivity (PSR sort gate)
QVQLVESGGGLVQAGASLRISCAASGYTFYANAMGWYIQAPGKEREFVASITWSGGSTYYADSVKGRFTISRDNAKNTVYLQMNSLKPEDTAVYYCAAESWFKYDYWGQGTQVTLSS	low polyreactivity
QVQLVESGGGLVQAGGSLRLICAASGRTFAIYAMGWYRQAPGKEREIVAAISWSGGDTYYADSVKGRFTISRDNEKNTVYLQMNSLKPEDTAVYYCAADRYDYSYFGYGAQDYDYWGQGTQLTVSS	low polyreactivity
QVQLVESGGGLVQAGGSLRLSCAASGSTFPVYAMGGYRQAPGKERELVAAISLIGGSTYYADSVKGRFTISRDTAKNTVYLQMNSLKPEDTAVYYCNTAVISSPPAIDVLEMDYWGQGTQVTVSS	low polyreactivity
QVQLVESGGGLVQAGGSLRLTCAASGSILYTYAMGWYRQAPGKERELVAAISRGGGSTYYADSVKGRFTISRDNAKNTVYLQMNSLKPEDTAVYYCAARKLTRGTGRDDEYWGQGTQVTVSS	high polyreactivity

Proceeding to the next sequence to report its polyreactivity (PSR sort gate).
The recorded polyreactivity (PSR sort gate) for entry QVQRVESGGGLVQAGGSLRLSCAASGRNFTRYAMGWYRQAPGKERELVASISRRGGSTYYADSVKGRFTISRDNAKNTVYLQMNSLKPEDTAVYYCNALVIARNIEMDYWGQGTQVTVSS equals high polyreactivity

---

# TEST PROTOCOL: yeast display, Sf9 membrane polyspecificity reagent, FACS + sequencing; frameworks hold sequencing errors
ASSAY READOUT: polyreactivity (PSR sort gate)

Some solved entries appear below for comparison.
BIOSEQUENCE	polyreactivity (PSR sort gate)
QVQLVESGGGLVQAGGSLRLSCAASGSIFADYTMGWYRQAPGKERELVAAISSDDSTYYADSVKGRFTISRDNAKNTVYLQMNSLKPEDTAVYYCNADGSIGPEEYWGQGTQVTVSS	low polyreactivity
QVQLVESGGGLVQAGGSLRLSCAASGNIFVPSAMGWYRQEPGKERELVAAINVGGSTNYADSLNGRFTNSRDNPKNTVYLQMNSVKPEDTAVNYFGAVWYFLSLWYDYWGHGTQVTVSS	high polyreactivity
QVQLVESGGGLVQAGGSLRLSCAASGSTFKFYAMGWYRQAPGKERELVAAISRSGGSTYYADSVKGRFTLSRDNAKNTVYLQMNSLKPEDTAGYYCAAERTLKSDYWGQGTQVTVSS	high polyreactivity
QVQLVESGGGLVQAGGSLRLSCAASGSISYTYAMGWYRQATGKERELVASISYSEGITYYADSVKGRFTISRDNAKNTVYLQMNSLKPEDTAVYYCAVEGVYPYYDQSEYDYWGQGTQVTVSS	high polyreactivity

The recorded polyreactivity (PSR sort gate) for entry QVQLVESGGGLVQAGGSLRLSCAASGLTFRKYAMGWYRQAPGKERELVAAITGSGGRTYYADSVKGRFTISRDNAKNTVYLQMNSLKPEDTAVYYCAADDYFHDDYCGQGTQVTVSS equals high polyreactivity

The recorded polyreactivity (PSR sort gate) for entry QVQLVESGGGLVQAGGSLRLSCAASGFIFYSNAMGWYRQSPGKERELVAGISRGGSTYYADSVKGRFTISRDNAKNTVYLQMNRLKPEDTAVYYCAAKISLGDDYWGQGTQVTVSS equals low polyreactivity

The recorded polyreactivity (PSR sort gate) for entry QVQLVESGGGLVQAGGSLRLNCAASGITFSANAMGWYRQATGKERELVASNRSSGGSTYYADSVKGRFTISRDNEKKTVYLQMNSLKPEDTAVYSRNARLGPLYVYRQYDSWGQGTQVTVSS equals low polyreactivity

The recorded polyreactivity (PSR sort gate) for entry QVQLVESGGGLVQAGGSLRLSCAASGRIFYRNAKGWYRQATGKERALVASITSGGRTNYADSVKGRFTISRDNAKNTVYLQMNSLKPEDTAVYYCAAPPPYSVRTFRFYYWGQGTQVTVSS equals high polyreactivity

The recorded polyreactivity (PSR sort gate) for entry QVPLVESGGGLVQAGGSLRLSCAASGRNYFKYAMGWYRQAPGKERELVATITWRGSSTYYSDSVKGRFTISRDNAKNTVFLQMNSLKPEDTAVYYCAARYLYTDEYWDKFYYWGQGTQVTVSS equals high polyreactivity

The recorded polyreactivity (PSR sort gate) for entry QVQLVESGGGLVQAGGSLRLSCAASGLIFVSYAMGWYRQAPGKERELVASITYSGGGTYYADSVKGRFTISRDYAKNTVYLQMNSLKPEDNAVYYCNADVCWCYSVYREYCMDYWGQGTQVTVSS equals low polyreactivity

The recorded polyreactivity (PSR sort gate) for entry QVQLVESGGGLVQAGGSLRLSCAASGSIFWANAMGWYRQAPGNERELVAAISRSGTSTFYADSVKGRFTISRDNAKNTVYLQMNSLKPEDTAVYYCNAVGSGYRSWYVYWGQGTQVTVSS equals high polyreactivity
